src = patent US9765037B2

Target: PfCDPK4 (Plasmodium falciparum (isolate 3D7))
Experiment: biochemical
Flag rule - EC50 less than 500 nM flags yes (1); the remaining entries get no (0).

Consider the worked cases shown below.
- line notation: "CC(C)(C)n1nc(-c2ccc(NC(=O)CCl)cc2)c2c(N)ncnc21"
  category: "no (0)"
- line notation: "CC(C)n1nc(-c2ccc3cc(OCc4ccccc4Cl)ccc3c2)c2c(N)ncnc21"
  category: "no (0)"
- line notation: "CC(C)(C)n1nc(-c2ccc(NC(=O)C3CCCCC3)cc2)c2c(N)ncnc21"
  category: "no (0)"

Prompt: Lab note: EC50 threshold 500 nM. Does this compound come in strictly under it? `CC(C)COc1ccc2cc(-c3nn(CC4CCN(C)CC4)c4ncnc(N)c34)ccc2c1`
Completion: yes (1)

Prompt: Criterion: EC50 strictly below 500 nM. Is it met by `CC(C)(C)n1nc(-c2ccc(-c3nn(C(C)(C)C)c4ncnc(N)c34)cc2)c2c(N)ncnc21` ?
Completion: no (0)

Prompt: Quick check: EC50 of `CCC(=O)Nc1ccc(-c2nn(C(C)(C)C)c3ncnc(N)c23)cc1` under 500 nM?
Completion: no (0)

Prompt: # TODO verify EC50 < 500 nM strictly for this compound: `CC(C)(C)C(=O)Nc1ccc(-c2nn(C(C)(C)C)c3ncnc(N)c23)cc1`
Completion: yes (1)

Prompt: Lab note: confirm whether the reported EC50 for this compound is below 500 nM, equality not counting. compound: `Cn1ncc2cc(-c3nn(C(C)(C)C)c4ncnc(N)c34)ccc21`
Completion: yes (1)

Prompt: I'd appreciate it if you could check whether `CC(C)CC(=O)Nc1ccc(-c2nn(C(C)(C)C)c3ncnc(N)c23)cc1` has EC50 smaller than 500 nM.
Completion: yes (1)

Prompt: EC50 strictly < 500 nM for this compound? `Nc1ncnc2c1c(-c1ccc3ncccc3c1)nn2CC1CCNCC1`
Completion: yes (1)
